Documented Classification across a set of binders
Target: T1, GST-HEMBA 1003117 PDZ domain 1 (Homo sapiens (Human)), Q96JH8
T1 chain: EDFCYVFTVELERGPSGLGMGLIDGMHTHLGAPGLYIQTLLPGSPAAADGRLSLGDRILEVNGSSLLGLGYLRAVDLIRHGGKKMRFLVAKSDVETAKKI
Assay Name: G' assay; note: key of the grades not given here
Measurement Kind: Classification (A450 class)

binder="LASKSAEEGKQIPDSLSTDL (modifications not checked) [DOCK2]" measurement_kind=Classification unit_tag="A450 class" value_reported=1
binder="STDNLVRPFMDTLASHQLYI (modifications not checked) [presenilin-2]" measurement_kind=Classification unit_tag="A450 class" value_reported=4
binder="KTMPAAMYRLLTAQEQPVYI (modifications not checked) [MINT-1]" measurement_kind=Classification unit_tag="A450 class" value_reported=3
binder="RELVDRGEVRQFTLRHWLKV (modifications not checked) [Dopamine transporter]" measurement_kind=Classification unit_tag="A450 class" value_reported=5
binder="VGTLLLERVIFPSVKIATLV (modifications not checked) [AdenoE4 typ9]" measurement_kind=Classification unit_tag="A450 class" value_reported=3
binder="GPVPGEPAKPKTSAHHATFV (modifications not checked) [RGS12 (regulator of G-protein signaling 12]" measurement_kind=Classification unit_tag="A450 class" value_reported=1
binder="AWDDSARAAGGQGLHVTAL (modifications not checked) [LPAP]" measurement_kind=Classification unit_tag="A450 class" value_reported=1
binder="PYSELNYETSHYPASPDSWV (modifications not checked) [catenin - delta 2]" measurement_kind=Classification unit_tag="A450 class" value_reported=1
binder="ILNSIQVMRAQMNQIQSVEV (modifications not checked) [ephrin B2]" measurement_kind=Classification unit_tag="A450 class" value_reported=2
binder="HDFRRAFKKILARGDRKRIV (modifications not checked) [alpha-2A Adrenergic receptor]" measurement_kind=Classification unit_tag="A450 class" value_reported=1
binder="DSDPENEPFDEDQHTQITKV (modifications not checked) [PTEN]" measurement_kind=Classification unit_tag="A450 class" value_reported=1
binder="LAVLAYSITLVMLWSIWQYA (modifications not checked) [Serotonin receptor 3a]" measurement_kind=Classification unit_tag="A450 class" value_reported=2
binder="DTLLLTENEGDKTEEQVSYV (modifications not checked) [serotonin receptor 5HT-2B]" measurement_kind=Classification unit_tag="A450 class" value_reported=1
binder="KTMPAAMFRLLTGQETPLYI (modifications not checked) [MINT-2]" measurement_kind=Classification unit_tag="A450 class" value_reported=3
binder="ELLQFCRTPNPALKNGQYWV (modifications not checked) [CSPG4 (chondroitin sulfae proteoglycan 4, melanoma-associated)]" measurement_kind=Classification unit_tag="A450 class" value_reported=5
